# System Under Test: Ubiquitin carboxyl-terminal hydrolase 28 (Homo sapiens) (UniProt Q96RU2)
# Sequence (Q96RU2 whole entry, looked up): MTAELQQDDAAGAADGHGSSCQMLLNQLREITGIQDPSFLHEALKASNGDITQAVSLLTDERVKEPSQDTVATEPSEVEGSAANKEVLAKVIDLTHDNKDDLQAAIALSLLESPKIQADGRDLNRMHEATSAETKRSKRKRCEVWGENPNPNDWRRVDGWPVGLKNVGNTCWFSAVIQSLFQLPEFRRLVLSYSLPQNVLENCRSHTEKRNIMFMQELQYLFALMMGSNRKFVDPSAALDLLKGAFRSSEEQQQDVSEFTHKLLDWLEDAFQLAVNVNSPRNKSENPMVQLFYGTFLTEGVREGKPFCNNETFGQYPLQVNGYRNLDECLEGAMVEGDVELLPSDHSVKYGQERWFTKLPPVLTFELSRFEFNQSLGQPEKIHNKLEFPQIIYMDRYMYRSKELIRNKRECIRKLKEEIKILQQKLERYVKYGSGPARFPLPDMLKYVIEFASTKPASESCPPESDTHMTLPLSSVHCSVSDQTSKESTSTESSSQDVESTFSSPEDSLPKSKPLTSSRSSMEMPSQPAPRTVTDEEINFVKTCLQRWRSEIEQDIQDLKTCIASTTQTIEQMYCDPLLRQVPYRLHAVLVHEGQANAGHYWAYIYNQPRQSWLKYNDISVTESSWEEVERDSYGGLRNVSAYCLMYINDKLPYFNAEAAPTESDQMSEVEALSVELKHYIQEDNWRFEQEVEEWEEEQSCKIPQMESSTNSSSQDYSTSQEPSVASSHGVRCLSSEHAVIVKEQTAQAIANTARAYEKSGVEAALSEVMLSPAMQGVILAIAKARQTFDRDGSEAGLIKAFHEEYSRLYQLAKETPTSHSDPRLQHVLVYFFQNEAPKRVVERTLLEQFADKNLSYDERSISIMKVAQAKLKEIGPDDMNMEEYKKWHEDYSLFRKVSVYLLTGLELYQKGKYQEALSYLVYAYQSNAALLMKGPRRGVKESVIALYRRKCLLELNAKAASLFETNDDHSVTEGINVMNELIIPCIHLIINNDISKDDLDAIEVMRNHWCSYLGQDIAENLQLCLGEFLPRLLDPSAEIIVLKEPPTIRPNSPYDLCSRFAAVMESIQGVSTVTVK
# Protocol Summary: Concentration-response biochemical assay confirming initial hits as inhibitors of ubiquitin-specific protease 28 (AID 1645866)
# Condition Notes: purified USP28, ubiquitin-rhodamine fluorescence, 30 min
The source made the active and inactive calls.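 The calls were made as follows: active = in confirmatory dose-response testing, peak deubiquitinase inhibition of 30% or more; inactive = the rest.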
Valid outcomes are listed here; reply with one: active, inactive

[[record]]
molecule = "O=[N+]([O-])c1ccccc1C(c1c[nH]c2ccccc12)c1c[nH]c2ccccc12"
class_label = "active"

[[record]]
molecule = "Cc1cccc(S(=O)(=O)N2CCc3nc4ccccc4n3CC2)c1"
class_label = "active"

[[record]]
molecule = "CCCCCC(=O)N1c2ccccc2NC2=C(C(=O)CC(c3ccc(C(C)(C)C)cc3)C2)C1c1ccncc1 (stereo not given)"
class_label = "active"

[[record]]
molecule = "CCn1c(SCC(=O)N2c3ccccc3CC2C)nnc1-c1ccc2c(c1)OCCO2 (stereo not given)"
class_label = "active"

[[record]]
molecule = "Nc1ccccc1SC(CC(=O)c1ccc(Cl)cc1)c1ccsc1 (stereo not given)"
class_label = "inactive"


**Q:** # outcome recorded in this test, key = Nc1c(C(=O)NCc2ccc3c(c2)OCO3)nnn1Cc1ccc(Br)cc1F
**A:** active

**Q:** # outcome recorded in this test, key = COc1cc(C(=O)Nc2ccc(-c3csc(C)n3)cc2)cc(OC)c1OC
**A:** active

**Q:** # outcome recorded in this test, key = O=c1ccc(-c2noc(Cc3c(F)cccc3Cl)n2)c[nH]1
**A:** active

**Q:** # outcome recorded in this test, key = COc1ccc(NC(=O)Cn2c(CSc3ccc(C)cc3)nc3ccccc32)cc1
**A:** active

**Q:** # outcome recorded in this test, key = CN(C)c1ccc(C2CC(c3c(O)n(C)c(=O)[nH]c3=O)=Nc3ccccc3S2)cc1 (stereo not given)
**A:** active

* * *

Listing: IC50 of selected compounds
# System Under Test: Ubiquitin carboxyl-terminal hydrolase 28 (Homo sapiens)
# Protocol Summary: Concentration-response biochemical assay confirming initial hits as inhibitors of ubiquitin-specific protease 28 (AID 1645866)
# Condition Notes: purified USP28, ubiquitin-rhodamine fluorescence, 30 min
Activity calls are given as the source filed them.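 Rule for the calls: active = in confirmatory dose-response testing, peak deubiquitinase inhibition of 30% or more; inactive = the rest.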

[[record]]
compound = "Cc1ccc2nc(NC(=O)CSc3nnc(-c4ccncc4)n3C3CC3)sc2c1"
observed_measurement = "4.17 µM"

[[record]]
compound = "COCC(C)Nc1ncc(-c2cnccn2)c(-c2ccc(C)s2)n1 (stereo unspecified)"
observed_measurement = "> 50 µM (inactive)"

[[record]]
compound = "Cc1ccnc(NC(=O)c2ccn(COc3ccc(Cl)cc3)n2)c1"
observed_measurement = "21.9 µM"


**Q:** May I ask what IC50 has been recorded for CC(C)c1cc(NCc2ccccc2)n2nc(-c3cccnc3)nc2n1 ?
**A:** 16.9 µM

**Q:** May I ask what IC50 has been recorded for O=c1[nH]c(-c2ccccn2)nc2c1CCN(Cc1cnn(-c3ccccc3)c1)C2 ?
**A:** > 50 µM (inactive)

**Q:** May I ask what IC50 has been recorded for CC1CCCCN1c1nc(F)c2c(c1F)S(=O)(=O)CCN2Cc1ccccc1 (stereo unspecified) ?
**A:** > 50 µM (inactive)

**Q:** May I ask what IC50 has been recorded for COc1ccccc1-c1nc(-c2nnn(Cc3cccc(F)c3)c2C)no1 ?
**A:** 10.4 µM

**Q:** May I ask what IC50 has been recorded for COc1ccc(NC(=O)C2[C@@H]3C(=O)N(C4CCCCC4)C(=O)[C@@H]3[C@H]3c4ccccc4C=CN23)cc1 (stereo partly specified) ?
**A:** 36.9 µM

* * *

# System Under Test: UniProtKB Q96RU2
# Protocol Summary: Concentration-response biochemical assay confirming initial hits as inhibitors of ubiquitin-specific protease 28 (AID 1645866)
# Condition Notes: purified USP28, ubiquitin-rhodamine fluorescence, 30 min
The source made the active and inactive calls.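 The calls were made as follows: active = in confirmatory dose-response testing, peak deubiquitinase inhibition of 30% or more; inactive = the rest.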
Listing: IC50 of selected compounds

Here is how some compounds turned out for IC50.
[[record]]
compound = "Cc1ccc2c(c1)[C@]1(C(=O)N2)[C@@H]2C(=O)N(c3cccc(C(F)(F)F)c3)C(=O)[C@@H]2C2CCCN21 (some centres undefined)"
attribute_measured = "IC50"
observed_measurement = "> 50 µM (inactive)"

[[record]]
compound = "COc1ccc(CC(=O)Nc2cccc(-c3nc4ncccc4o3)c2)cc1OC"
attribute_measured = "IC50"
observed_measurement = "> 50 µM (inactive)"

[[record]]
compound = "COc1ccc(NC(=O)CC(=O)c2ccc([N+](=O)[O-])cc2)cc1S(=O)(=O)Nc1ccc(Br)cc1"
attribute_measured = "IC50"
observed_measurement = "28.1 µM"

[[record]]
compound = "COc1ccc(NC(=O)Cn2c(CS(=O)(=O)c3ccc(C)cc3)nc3ccccc32)cc1"
attribute_measured = "IC50"
observed_measurement = "12.4 µM"


**Q:** May I ask what IC50 has been recorded for COc1ccc(OC)c(-c2cn3ccn(-c4ccc5c(c4)CCC5)c(=O)c3n2)c1 ?
**A:** > 50 µM (inactive)

**Q:** May I ask what IC50 has been recorded for Cc1ncncc1C(=O)N1CCCC(C)(c2ncc(Cc3cccc(F)c3)o2)C1 (centres undefined) ?
**A:** > 50 µM (inactive)

**Q:** May I ask what IC50 has been recorded for CCCCc1nc2sc3c(NCCN4CCOCC4)ncnc3c2c2c1CCC2 ?
**A:** 0.549 µM

**Q:** May I ask what IC50 has been recorded for COc1cccc(NC(=O)Nc2ccc(CCc3nc4ccccc4[nH]3)cc2)c1 ?
**A:** 6.28 µM

**Q:** May I ask what IC50 has been recorded for Cc1cc(C)c2cc3c(nc2c1)OC(=O)N(Cc1ccco1)C3 ?
**A:** 9.77 µM

* * *

# System Under Test: Ubiquitin carboxyl-terminal hydrolase 28 (Homo sapiens)
# Protocol Summary: Concentration-response biochemical assay confirming initial hits as inhibitors of ubiquitin-specific protease 28 (AID 1645866)
# Condition Notes: purified USP28, ubiquitin-rhodamine fluorescence, 30 min
The source made the active and inactive calls.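 The calls were made as follows: active = in confirmatory dose-response testing, peak deubiquitinase inhibition of 30% or more; inactive = the rest.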
Valid outcomes are listed here; reply with one: true for active, false for inactive

Worked cases, answers included:
[[record]]
structure_smiles_string = "COc1ccc(NS(=O)(=O)c2ccc(NC(=O)Nc3ccc(Cl)cc3)cc2)cc1"
class_label = "true"

[[record]]
structure_smiles_string = "O=[N+]([O-])c1cccc(-c2noc(CSc3ccccc3)n2)c1"
class_label = "true"

[[record]]
structure_smiles_string = "O=c1ccc(-c2noc(Cc3cccc(Cl)c3)n2)c[nH]1"
class_label = "true"

[[record]]
structure_smiles_string = "Cc1cc(O)c2c3c(c(O)c4c(c13)O[C@@H](C)C4(C)C)C(=O)C2=O"
class_label = "true"


Consider the additional molecule presented here.
**Q:** # outcome recorded in this test, key = Cc1ccccc1C(=O)OCCN1C(=O)c2cccc3c(N4CCOCC4)ccc(c23)C1=O
**A:** false

* * *

# System Under Test: Ubiquitin carboxyl-terminal hydrolase 28 (Homo sapiens) (UniProt Q96RU2)
# Protocol Summary: Concentration-response biochemical assay confirming initial hits as inhibitors of ubiquitin-specific protease 28 (AID 1645866)
# Condition Notes: purified USP28, ubiquitin-rhodamine fluorescence, 30 min
Active and inactive are the calls of the source.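 How the source made its calls: active means in confirmatory dose-response testing, peak deubiquitinase inhibition of 30% or more; inactive means the rest.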
Listing: IC50 of selected compounds

Here is how some compounds turned out for IC50.
[[record]]
structure_smiles_string = "Nc1ccc(F)c(NS(=O)(=O)c2ccccc2)c1"
observed_measurement = "> 50 µM (inactive)"

[[record]]
structure_smiles_string = "O=C1Cc2ccccc2C(=O)N1c1ccc2c(c1)OCO2"
observed_measurement = "24.3 µM"

[[record]]
structure_smiles_string = "c1ccc(CCN2CCc3nc4cccnc4cc3C2)nc1"
observed_measurement = "> 50 µM (inactive)"

[[record]]
structure_smiles_string = "CCCN1CCN(C(=O)c2cc(NC(=O)C3CCC3)cc3nc(C)ccc23)CC1"
observed_measurement = "> 50 µM (inactive)"


**Q:** May I ask what IC50 has been recorded for CC1=C(c2ccc(F)cc2)S(=O)(=O)NC1=NCC(=O)Nc1cccc(F)c1 ?
**A:** 48.7 µM

**Q:** May I ask what IC50 has been recorded for CCc1noc(Cn2cnc3c4ccccc4n(CC(=O)NC4CCCCC4)c3c2=O)n1 ?
**A:** 40 µM

**Q:** May I ask what IC50 has been recorded for CN(C)S(=O)(=O)c1ccc(C(=O)Nc2c(C#N)oc3ccccc23)cc1 ?
**A:** > 50 µM (inactive)

**Q:** May I ask what IC50 has been recorded for CN1C(=O)c2cc(NC(=O)c3ccccc3Cl)ccc2Oc2ccccc21 ?
**A:** 1.25 µM

**Q:** May I ask what IC50 has been recorded for O=C(CSc1nc2cc(S(=O)(=O)Nc3ccccc3Cl)ccc2o1)Nc1ccc(N2CCOCC2)cc1 ?
**A:** 34.5 µM

**Q:** May I ask what IC50 has been recorded for O=C(CCc1nnc2n(Cc3ccccc3)c(=O)c3ccccc3n12)N1CCN(c2ccccn2)CC1 ?
**A:** 2.98 µM
